Test system: human IRAK4 FL (Full Length) (Homo sapiens (Human), UniProt Q9NWZ3)
Sequence (Q9NWZ3 whole entry): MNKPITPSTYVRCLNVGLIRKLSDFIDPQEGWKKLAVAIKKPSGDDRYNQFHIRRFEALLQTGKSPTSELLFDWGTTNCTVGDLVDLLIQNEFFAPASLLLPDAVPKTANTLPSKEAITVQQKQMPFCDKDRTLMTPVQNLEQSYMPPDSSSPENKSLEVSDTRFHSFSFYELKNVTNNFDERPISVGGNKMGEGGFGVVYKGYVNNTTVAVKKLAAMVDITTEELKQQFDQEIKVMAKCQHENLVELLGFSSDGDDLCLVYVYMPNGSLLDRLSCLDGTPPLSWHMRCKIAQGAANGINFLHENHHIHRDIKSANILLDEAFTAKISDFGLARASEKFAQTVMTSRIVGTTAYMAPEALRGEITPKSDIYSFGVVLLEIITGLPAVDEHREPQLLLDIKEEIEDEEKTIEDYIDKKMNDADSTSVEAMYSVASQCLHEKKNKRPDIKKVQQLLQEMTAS
Protocol notes: IRAK4 Enzymatic DELFIA Assay, Protocol A
Measurement setup: 0.6 mM ATP
Measure: IC50 (µM)
Lab book: enter the figure in µM, no units written.

Exercise: Look up IC50: COc1cc2c(OC[C@H]3C[C@@H](F)C(=O)N3)nccc2cc1C(N)=O
Key: 0.119

Exercise: Reported IC50, compound COc1cc2c(OC[C@@H]3C[C@](F)(CC(F)(F)F)C(=O)N3)cccc2cc1C(N)=O : ____
Key: 0.161

Exercise: Quick check: IC50 of COc1cc2c(OC[C@@H]3C[C@@](F)(CC(F)(F)F)C(=O)N3)cccc2cc1C(N)=O ?
Key: 0.0023
